Target: T1, His-tagged PD-L1 ECD protein (ACROBiosystems) (human, UniProt Q9NZQ7 19-238)
T1 construct: Bought protein; also called PD-L1-His; PD-L1/His; not shown: His tag
T1 sequence (Q9NZQ7 19-238): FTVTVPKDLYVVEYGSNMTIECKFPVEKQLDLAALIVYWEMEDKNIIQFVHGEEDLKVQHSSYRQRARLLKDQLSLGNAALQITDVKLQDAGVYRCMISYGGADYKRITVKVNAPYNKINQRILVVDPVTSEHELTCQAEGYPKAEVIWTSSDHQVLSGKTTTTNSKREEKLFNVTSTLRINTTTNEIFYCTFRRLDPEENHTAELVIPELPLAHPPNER
Assay: SPR, supernatant IgG captured, PD-L1-His analyte
Entries annotated with measured koff
Express the result in s⁻¹ but write the number alone.

>  <binder>
53C1_VH2-VL1.M1 (antibody, human IgG1, kappa, N297A, V domains shown, Humanized, hIgG1 effector-less Fc, kappa; see recheck on K24R in the .M1 light chain) VH: EVQLVQSGAEVKKPGASVKVSCKASGYIFTGYGITWVRQAPGQGLEWIGEIFPRRVNTYYSEKFKGRATLTTDTSTSTAYMELRSLRSDDTAVYFCARDYDPYFALDYWGQGTTVTVSS VL: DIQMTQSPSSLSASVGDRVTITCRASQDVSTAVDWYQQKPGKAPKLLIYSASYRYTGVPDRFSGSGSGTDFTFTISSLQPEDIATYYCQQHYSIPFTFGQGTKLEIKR

>  <koff, s⁻¹>
0.00025

$$$$
>  <binder>
53C1_VH3-VL1.M1 (antibody, human IgG1, kappa, N297A, V domains shown, Humanized, hIgG1 effector-less Fc, kappa; see recheck on K24R in the .M1 light chain) VH: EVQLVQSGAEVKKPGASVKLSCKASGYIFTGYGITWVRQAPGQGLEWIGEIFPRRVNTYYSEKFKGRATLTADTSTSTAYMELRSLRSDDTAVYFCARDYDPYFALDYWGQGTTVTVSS VL: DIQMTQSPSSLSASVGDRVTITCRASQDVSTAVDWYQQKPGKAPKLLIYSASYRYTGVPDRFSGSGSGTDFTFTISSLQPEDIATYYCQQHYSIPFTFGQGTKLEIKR

>  <koff, s⁻¹>
0.00015

$$$$

Determine from records and report koff for 53C1_VH3.M3-VL1.M1 (antibody, human IgG1, kappa, N297A, V domains shown, Humanized, VH N57Q in the entry; hIgG1 effector-less Fc, kappa; see recheck on K24R in the .M1 light chain) VH: EVQLVQSGAEVKKPGASVKLSCKASGYIFTGYGITWVRQAPGQGLEWIGEIFPRRVQTYYSEKFKGRATLTADTSTSTAYMELRSLRSDDTAVYFCARDYDPYFALDYWGQGTTVTVSS VL: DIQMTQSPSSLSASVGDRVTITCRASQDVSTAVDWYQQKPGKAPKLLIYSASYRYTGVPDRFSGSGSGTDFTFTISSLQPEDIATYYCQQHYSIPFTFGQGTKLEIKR 7.3e-05

Return koff for the following binder: 53C1_chimeric (antibody, human IgG1, kappa, N297A, V domains shown, Human IgG1 with effector-less Fc mutations, human kappa; also called chimeric 53C1F3D4) VH: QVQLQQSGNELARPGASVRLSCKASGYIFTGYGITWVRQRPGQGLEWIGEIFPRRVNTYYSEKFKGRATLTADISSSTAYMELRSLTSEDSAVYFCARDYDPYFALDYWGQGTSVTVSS VL: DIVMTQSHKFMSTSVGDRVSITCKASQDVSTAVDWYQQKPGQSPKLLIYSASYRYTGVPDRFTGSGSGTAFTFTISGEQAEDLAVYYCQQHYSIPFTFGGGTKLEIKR 0.00018
